system: stable U20S reporter cells harboring Per2-dLuc; assay: Per2 assay for evaluating the potency of test compounds (circadian luciferase reporter); format: cell-based; details: amplitude of Per2-dLuc luminescence vs log concentration
measurement.type: pEC50
# pEC50 = -log10(concentration in molar units)

// below: answered compounds
CC1CCN(CC(O)Cn2c3ccc(F)cc3c3cc(F)ccc32)C1=O (stereo not drawn) ... 6.37
CN1CCCN(CC(O)Cn2c3ccccc3c3ccccc32)C1=O (stereo not drawn) ... 6.13
CC(O)(CN1CCCCC1=O)Cn1c2ccccc2c2ccccc21 (stereo not drawn) ... 6.28
O=C1C(C2CCC2)CCN1CC(O)Cn1c2ccc(F)cc2c2cc(F)ccc21 (stereo not drawn) ... 6.69
CC1CCC(=O)N(CC(O)Cn2c3ccc(F)cc3c3cc(F)ccc32)C1 (stereo not drawn) ... 6.65
CC1CCCN(CC(O)Cn2c3ccccc3c3ccccc32)C1=O (stereo not drawn) ... 6.34
O=C1CC(C2CC2)CN1CC(O)Cn1c2ccc(F)cc2c2cc(F)ccc21 (stereo not drawn) ... 6.38
CC1CCCN(CC(O)Cn2c3ccc(F)cc3c3cc(F)ccc32)C1=O (stereo not drawn) ... 6.32

The compound listed as C[C@@H]1CCC(=O)N1C[C@H](O)Cn1c2ccc(F)cc2c2cc(F)ccc21 shows pEC50 equal to 6.65

This collection of values is drawn from patent US10214507B2.
